Give measured GFP response vs DMSO for each item. Keep answers brief.
# assay.name: RPL19A-GFP modulators, yeast TOR pathway, confirmation, cell-based, S. cerevisiae, flow cytometry, cherry picks, mother/daughter gates (AID 2270)
# cond: S. cerevisiae RPL19A-GFP strain, 3 h, measured here: mother cell gate, at 10 µM, stronger effect = lower value, 100 = same GFP as DMSO wells
Answers without a unit are incomplete; give the number and then its unit.

Lab book: GFP response vs DMSO of CCCCN(CC)S(=O)(=O)c1ccc(C(=O)Nc2nnc(COC)o2)cc1 noted as 98.1%

Form: compound = Cc1ccc(C2=NOC(=O)/C2=C\c2ccc(C)o2)cc1 ; GFP response vs DMSO = 90.8%

Memo: C/C(=N\NC(=O)Cc1ccc([N+](=O)[O-])cc1)c1cccnc1 , reported GFP response vs DMSO: 97.7%

The recorded GFP response vs DMSO for entry O=C1C(=O)c2ccc(-c3ccccc3)cc2-c2ccccc21 equals 102%

# GFP response vs DMSO of COc1ccc(CC(=O)Oc2ccccc2C)cc1 = 98.3%

Entry CN(C)c1ccc(N=Cc2nc(-c3ccccc3)oc2OC(=O)c2cccc(Br)c2)cc1 ; GFP response vs DMSO = 89.1%

compound COc1ccc(NC(=O)C2C3C=CC(C3)C2C(=O)NCc2ccco2)c(OC)c1 (stereo unspecified) , GFP response vs DMSO observed: 93.3%

Just so you know, measured GFP response vs DMSO for N/C(Cc1ccc(Cl)cc1)=N\OC(=O)c1cccc2ccccc12 came out at 82.6%

Reported GFP response vs DMSO ( Cc1cc(NCCN2CCOCC2)n2ncc(-c3ccccc3)c2n1 ) = 99.4%

Looking up O=C(NNC1=NCCC1)c1cccc(Br)c1 , I see its GFP response vs DMSO listed as 97.9%

# compound CC1CN(c2nnnn2-c2ccccc2)CC(C)O1 (stereo unspecified) ; its GFP response vs DMSO = 99.8%

Data point: N#C/C(=C\c1ccc(N2CCOCC2)o1)c1ccccc1 ; GFP response vs DMSO = 98.5%

What the record says about Oc1cccc(/C=N/c2c(-c3ccco3)nc3ccccn23)c1 : GFP response vs DMSO is 96.9%

Record summary for Cc1nc(Sc2ccccc2)c(C#N)c(C)c1[N+](=O)[O-] : reported GFP response vs DMSO = 96.6%

For this compound ( COc1ccccc1N1C(=O)CC(Sc2nccc(C)n2)C1=O (stereo unspecified) ), measured GFP response vs DMSO is 102%

Value of GFP response vs DMSO reported for the compound CCOC(=O)c1sc(NC(=O)CN2C(=O)c3cccc4cccc(c34)C2=O)nc1C is 96.9%

Reported GFP response vs DMSO for O=C1CC(SCc2nc3ccccc3[nH]2)C(=O)N1c1ccc(F)cc1 (stereo unspecified) was 100%

Record Cc1cc(NC(=O)c2ccc3c(c2)OCCO3)ccc1NC(=O)c1cc2ccccc2o1 . Reported GFP response vs DMSO: 96.5%

COc1cccc2cc(C(=O)N3CCN(C/C=C/c4ccccc4)CC3)c(=O)oc12 yielded GFP response vs DMSO of 98%

So, C=CCOc1ccccc1C(=O)/C=C1/C(=O)Nc2ccccc21 ? Its GFP response vs DMSO was 95%

// CC(=O)Nc1ccc(NC(=O)c2nc(S(=O)(=O)Cc3cccc(C)c3)ncc2Cl)cc1 : GFP response vs DMSO value = 103%

Entry under test: CCCCN(CC)S(=O)(=O)c1ccc(C(=O)Nc2nnc(-c3ccccc3Cl)o2)cc1 . Its GFP response vs DMSO was 98.5%

The measured GFP response vs DMSO associated with C=CCNC(=O)/C(C#N)=C/c1c(N2CC(C)OC(C)C2)nc2ccccn2c1=O (stereo unspecified) reads 98.4%

Consider COc1ccc(-c2ccc(S(=O)(=O)N3CCOCC3)cc2)cc1 . Its measured GFP response vs DMSO is 95.7%

// recorded GFP response vs DMSO for O=C(O)Cc1sc(Nc2ccc(F)cc2)nc1-c1cccs1 : 97%

Noted for CC(=O)Oc1ccc(/C=c2\sc3ncnn3c2=O)cc1 : its GFP response vs DMSO reads 97.8%

Recorded result, O=C(COC(=O)c1n[nH]c2ccccc12)c1cc(F)ccc1F , GFP response vs DMSO: 101%

Data point: Cc1[nH][nH]c(=O)c1C(c1ccc(-c2ccc(Cl)cc2)o1)c1c(C)[nH][nH]c1=O ; GFP response vs DMSO = 99.8%

Item: FC(F)(F)c1cc(-c2cccs2)nc2cc(-c3cccs3)nn12 | GFP response vs DMSO: 102%

Quick note, GFP response vs DMSO for c1ccc(CSc2ccc(-c3ccccn3)nn2)cc1 landed at 91.9%

Sure, the documented GFP response vs DMSO for Cc1cc(N2CCN(C(=O)c3ccco3)CC2)n2ncc(-c3ccccc3)c2n1 is 101%

// sample O=C(NCCO)c1c(O)c2cccc3c2n(c1=O)CC3 , its GFP response vs DMSO was 99.4%

For COc1ccc(CN2CN(C(C)C)CSC2=S)cc1 the compound record lists GFP response vs DMSO as 92.1%

The compound listed as Cc1ccc(-n2nnnc2C(Cl)(Cl)c2nnnn2-c2ccc(C)cc2)cc1 has a reported GFP response vs DMSO of 98.6%

Lab book: GFP response vs DMSO of Cc1cccc(CSc2cccc3cccnc23)c1 noted as 92.1%

Sample Cc1ccn2c(NC3CCCCC3)c(C)nc2c1 ; GFP response vs DMSO observed: 99.6%

GFP response vs DMSO measured on COc1ccc(C2=CC(=O)N(Nc3ccccc3)C2=O)cc1 = 95.8%

Briefly, GFP response vs DMSO measured for O=C(c1ccccc1F)N1CCN(c2ccccc2)CC1 : 97.6%

The measured GFP response vs DMSO associated with COc1ccc(-n2c(N)c(C(=O)Nc3c(C)n(C)n(-c4ccccc4)c3=O)c3nc4ccccc4nc32)cc1 reads 98.1%

Query O=C(CSc1nnc(C2COc3ccccc3O2)o1)N1CCCC1 (stereo unspecified) yields GFP response vs DMSO of 98.7%

Form: compound = Cc1ccc2c(c1)c(/C=C/c1cc[n+](C)cc1)c(C)n2C ; GFP response vs DMSO = 108%

// sample Cc1sc(NC(=O)c2cccs2)nc1-c1ccccc1 , its GFP response vs DMSO was 105%

Entry CCCc1[nH]nc2c1C(c1cccc(OC)c1)C(C#N)=C(N)O2 (stereo unspecified) ; GFP response vs DMSO = 103%

What the record says about COC(=O)Cc1csc(Nc2ccc(F)c(Cl)c2)n1 : GFP response vs DMSO is 100%

Lab note: measured GFP response vs DMSO of O=C(Nc1ccccc1O)c1ccc(Cl)cc1 was 96.6%

// sample O=C(O)c1ccc2ccc3ccccc3c2c1 , its GFP response vs DMSO was 95%
